Data provenance is paper PMC7005452.

Assay: WST-1 cytotoxicity / cell viability assay
Assay type: cell-based, human
Conditions: human, HEK293 cells, log-probit on percentage mortality, read-out: LC50
Protocol: Human embryonic kidney 293 (HEK293) and CACO2 cells were purchased from ATCC. Cells were cultured in DMEM (Corning, USA) supplemented with 10% FBS (Gibco, USA) and 1% penicillin/streptomycin (Gibco, USA). […] Orange color development for enzyme-substrate reaction was monitored, using spectrophotometry at 450 nm (Tecan Sunrise, Switzerland). […]
readout kind: CC50 at 48 h (mM)
Answers are plain numbers, in mM.

INSERT INTO assay_data (compound, readout_kind, test_value) VALUES
  ('COC(=O)c1ccccc1 [MB, Methyl benzoate]', 'CC50 at 48 h', 13.2);

IN: Can you look up the measured CC50 at 48 h of CCOC(=O)c1ccccc1 [EB, ethyl benzoate] for me?
OUT: 6.9

====

Experiment: WST-1 cytotoxicity / cell viability assay
Format: cell-based, human
Conditions: human, CACO2 cells; CACO2, WST assay, log-probit on percentage mortality; read-out: LC50
readout kind: CC50 at 48 h (mM)
One number for each entry, in mM.

IN: Can you look up the measured CC50 at 48 h of COC(=O)c1ccccc1 [MB, Methyl benzoate] for me?
OUT: 20.6

====

Tested on: SH-SY5Y cells
Assay: WST-1 cytotoxicity / cell viability assay
Format: cell-based, human
Conditions: log-probit on percentage mortality, read-out: LC50 (the source's name)
readout kind: CC50 (mM)
Give bare numbers, in mM.

IN: Can you look up the measured CC50 of C=COC(=O)c1ccccc1 [VB, vinyl benzoate] for me?
OUT: 6.1
